- Tested on: HPAC cells (KRAS G12D)
- assay details: Cell-based pERK HTRF assay in HPAC cells (Biological Example 5)
measured attribute: IC50

Item: CN(c1nc(OC[C@@]23CCCN2C[C@H](F)C3)nc2c(F)c(-c3ccc(F)c4sc(N)c(C#N)c34)c(C(F)(F)F)cc12)[C@H]1C[C@@H](O)C1 Test system: HPAC cells (KRAS G12D) Read-out: IC50 Value: ?
≤ 100 nM

----------
Record form. Attribute: pIC50. Fill in for each entry.
- study target: Avi-KRAS WT (2-169) GTP/RAF1 RBD-3xFLAG (51-131) (Homo sapiens, UniProt P01116)
- Construct: Avi-KRAS WT (2-169)
- Sequence (P01116 2-169 isoform P01116-2): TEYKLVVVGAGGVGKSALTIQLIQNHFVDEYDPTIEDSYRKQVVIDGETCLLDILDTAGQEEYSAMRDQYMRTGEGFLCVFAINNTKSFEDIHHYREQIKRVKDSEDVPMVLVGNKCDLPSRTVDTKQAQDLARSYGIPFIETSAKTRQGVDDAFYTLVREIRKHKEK
- assay details: Raf1-KRAS WT-GTP disruption HTRF assay (Biological Example 3)
- Format: binding
- details: KRAS WT, GTP-loaded
- Method: Biological Example 3: Disrupting RAS-Effector Binding HTRF Assay A protein:protein interaction (PPI) Homogeneous Time Resolved Fluorescence (HTRF) assay was used to determine the effectiveness of compounds in disrupting KRAS protein and effector (RAF1) binding. […] Plates were analyzed on an Envision plate reader using the following setting: Excitation 320 nm, Bandwidth 75 nm; Emission 615 nm, Bandwidth 85 nm; Gain 100%; Flashes 100; Lag 60 μs. […] Data was plotted and analyzed using Prism 8. […]
pIC50: −log10 of the molar value.

# lookup: pIC50 of CN(c1nc(OCC23CCCN2CC(F)C3)nc2c(F)c(-c3ccc(F)c4sc(N)c(C#N)c34)c(C(F)(F)F)cc12)C1CCc2ccncc21 (centres unmarked) [Compound 961]
< 5.00

Next compound up: CCN(c1nc(OC[C@@]23CCCN2C[C@H](F)C3)nc2c(F)c(-c3ccc(F)c4sc(N)c(C#N)c34)c(C(F)(F)F)cc12)[C@@H]1CCCN(C)C1=O (atropisomer, axis not shown)
6.00 to 7.00

Another compound: [2H][C@]1(N(CC)c2nc(OC[C@@]34CCCN3C[C@H](F)C4)nc3c(F)c(-c4ccc(F)c5sc(N)c(C#N)c45)c(C(F)(F)F)cc23)CCN(C(=O)C(C)C)C1 (atropisomer, axis not shown)
6.00 to 7.00

Cool, now CCN(c1nc(OC[C@@]23CCCN2C[C@H](F)C3)nc2c(F)c(-c3ccc(F)c4sc(N)c(C#N)c34)c(C(F)(F)F)cc12)[C@H]1C[C@H](C)N(C(=O)[C@@H]2C[C@H]2F)C1 (atropisomer, axis not shown; (aS))
6.00 to 7.00

Item: CCN(c1nc(OC[C@@]23CCCN2C[C@H](F)C3)nc2c(F)c(-c3ccc(F)c4sc(N)c(C#N)c34)c(C(F)(F)F)cc12)[C@H]1CCN(C(=O)c2ncoc2C)C1 (atropisomer, axis not shown)
6.00 to 7.00

----------
Could you please report measured IC50 for the items listed next?
- study target: Avi-KRAS G12R (1-169) GppNHp/RAF1 RBD-3xFLAG (52-151) (Homo sapiens, UniProt P01116, G12R)
- Construct: Avi-KRAS G12R (1-169)
- Sequence (P01116 1-169 isoform P01116-2 G12R): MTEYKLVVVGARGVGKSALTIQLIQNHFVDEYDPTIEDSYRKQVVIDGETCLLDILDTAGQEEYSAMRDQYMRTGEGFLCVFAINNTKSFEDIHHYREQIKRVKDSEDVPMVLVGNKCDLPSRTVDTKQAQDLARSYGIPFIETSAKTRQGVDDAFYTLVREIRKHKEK
- assay details: Raf1-KRAS G12R-GppNHP disruption HTRF assay (Biological Example 1)
- Type: binding
- details: KRAS G12R, GppNHp-loaded; Table 11

Param item = N#Cc1c(N)sc2c(F)ccc(-c3c(C(F)(F)F)cc4c(N5CC(F)C5)nc(OC[C@@]56CCCN5C[C@H](F)C6)nc4c3F)c12 ; retrieve measured IC50.
100 to 1000 nM

What about this compound? CN(c1nc(OC[C@@]23CCCN2C[C@H](F)C3)nc2c(F)c(-c3ccc(F)c4sc(N)c(C#N)c34)c(C(F)(F)F)cc12)[C@H]1C[C@@H](O)C1 [Compound 18]
100 to 1000 nM

CN(c1nc(OC[C@@]23CCCN2C[C@H](F)C3)nc2c(F)c(-c3ccc(F)c4sc(N)c(C#N)c34)c(C(F)(F)F)cc12)C1CCC(O)CC1 (some centres unmarked) [Compound 66] , same question.
100 to 1000 nM

Now consider CN(c1nc(OC[C@@]23CCCN2C[C@H](F)C3)nc2c(F)c(-c3ccc(F)c4scc(C#N)c34)c(C(F)(F)F)cc12)[C@@H]1CCN(C(=O)CC#N)C1 .
> 10000 nM

Here is the next compound: N#CCC[C@H]1CCN(c2nc(OC[C@@]34CCCN3C[C@H](F)C4)nc3c(F)c(-c4ccc(F)c5sc(N)c(C#N)c45)c(C(F)(F)F)cc23)C1
1000 to 10000 nM

And for N#Cc1c(N)sc2c(F)ccc(-c3c(C(F)(F)F)cc4c(N5CC(CO)C5)nc(OC[C@@]56CCCN5C[C@H](F)C6)nc4c3F)c12 ?
100 to 1000 nM

Entry to check: CC1(CO)CCN(c2nc(OCC34CCCN3CC(F)C4)nc3c(F)c(-c4ccc(F)c5sc(N)c(C#N)c45)c(C(F)(F)F)cc23)CC1 (centres unmarked)
100 to 1000 nM

Again, but for C[C@@H](O)CN(C)c1nc(OC[C@@]23CCCN2C[C@H](F)C3)nc2c(F)c(-c3ccc(F)c4sc(N)c(C#N)c34)c(C(F)(F)F)cc12
100 to 1000 nM

Could you do the same for C[C@@H]1CN(c2nc(OC[C@@]34CCCN3C[C@H](F)C4)nc3c(F)c(-c4ccc(F)c5sc(N)c(C#N)c45)c(C(F)(F)F)cc23)C[C@@H](C)O1 , please?
100 to 1000 nM

Check N#Cc1c(N)sc2c(F)ccc(-c3c(C(F)(F)F)cc4c(N5CCCC6(C5)NC(=O)NC6=O)nc(OC[C@@]56CCCN5C[C@H](F)C6)nc4c3F)c12 (some centres unmarked) too.
100 to 1000 nM

Follow-up item: CN(c1nc(OCC23CCCN2CCC3)nc2c(F)c(-c3ccc(F)c4sc(N)nc34)c(C(F)(F)F)cc12)[C@@H]1CC[C@H](O)C1 (atropisomer, axis not shown)
1000 to 10000 nM

----------
Can you tell me pIC50 for the items I'm about to list?
- study target: Avi-KRAS G12R (1-169) GppNHp/RAF1 RBD-3xFLAG (52-151) (Homo sapiens, UniProt P01116, G12R)
- Construct: Avi-KRAS G12R (1-169)
- assay details: Raf1-KRAS G12R-GppNHP disruption HTRF assay (Biological Example 1)
- Assay type: binding
- details: KRAS G12R, GppNHp-loaded; Table 11
pIC50: −log10 of the molar value.

Look up pIC50 for this compound: CCN(C)c1nc(OC[C@@]23CCCN2C[C@H](F)C3)nc2c(F)c(-c3ccc(F)c4sc(N)c(C#N)c34)c(C(F)(F)F)cc12 (single isomer, unassigned) [Compound 197]
< 5.00

Moving on to the next compound: N#Cc1c(N)sc2c(F)ccc(-c3c(C(F)(F)F)cc4c(N5CCCOCC5)nc(OC[C@@]56CCCN5C[C@H](F)C6)nc4c3F)c12 [Compound 232]
6.00 to 7.00

Same for CN(c1nc(OC[C@@]23CCCN2C[C@H](F)C3)nc2c(F)c(-c3ccc(F)c4sc(N)c(C#N)c34)c(Cl)cc12)[C@H]1C[C@@H](O)C1 [Compound 24]
6.00 to 7.00

What do you get for CN(c1nc(OC[C@@]23CCCN2C[C@H](F)C3)nc2c(F)c(-c3ccc(F)c4sc(N)c(C#N)c34)c(C(F)(F)F)cc12)[C@H]1CCC[C@@H]1CO [Compound 86] ?
6.00 to 7.00

Likewise for C[C@@H]1[C@H](N(C)c2nc(OC[C@@]34CCCN3C[C@H](F)C4)nc3c(F)c(-c4ccc(F)c5sc(N)c(C#N)c45)c(C(F)(F)F)cc23)CCN1C(=O)C1CC1 [Compound 258] ?
> 7.00

----------
- Test system: H1573 cells (KRAS G12A)
- assay details: 3D Cell viability assay in H1573 cells (Biological Example 6)
- Format: cell-based
- details: H1573 (KRAS G12A) spheroids, 72 hours
measured attribute: IC50

Dear colleague, I am looking for the recorded IC50 of the following compound: CN(c1nc(OC[C@@]23CCCN2C[C@H](F)C3)nc2c(F)c(-c3ccc(F)c4sc(N)c(C#N)c34)c(C(F)(F)F)cc12)[C@H]1C[C@@H](O)C1
≤ 0.1 µM

----------
Consider the following molecules; for each one, report its IC50.
- study target: Avi-KRAS G12V (1-169) GppNHp/RAF1 RBD-3xFLAG (52-151) (Homo sapiens, UniProt P01116, G12V)
- Construct: Avi-KRAS G12V (1-169)
- Sequence (P01116 1-169 isoform P01116-2 G12V): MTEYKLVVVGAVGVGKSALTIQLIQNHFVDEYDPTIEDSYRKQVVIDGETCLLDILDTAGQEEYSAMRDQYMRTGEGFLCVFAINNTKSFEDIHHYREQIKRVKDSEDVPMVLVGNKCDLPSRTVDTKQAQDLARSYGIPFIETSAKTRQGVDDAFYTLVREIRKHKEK
- assay details: Raf1-KRAS G12V-GppNHP disruption HTRF assay (Biological Example 1)
- Type: binding
- details: KRAS G12V, GppNHp-loaded; Table 11

Bench note: what IC50 did CC(=O)N1C[C@@H](N(C)c2nc(OC[C@@]34CCCN3C[C@H](F)C4)nc3c(F)c(-c4ccc(F)c5sc(N)c(C#N)c45)c(C(F)(F)F)cc23)[C@@H](F)C1 [Compound 187] show?
100 to 1000 nM

What would you report for CN(CCO)c1nc(OC[C@@]23CCCN2C[C@H](F)C3)nc2c(F)c(-c3ccc(F)c4sc(N)c(C#N)c34)c(C(F)(F)F)cc12 [Compound 70] ?
100 to 1000 nM

Next: CN(C)C(=O)CN(C)c1nc(OC[C@@]23CCCN2C[C@H](F)C3)nc2c(F)c(-c3ccc(F)c4sc(N)c(C#N)c34)c(C(F)(F)F)cc12 [Compound 208]
100 to 1000 nM

Please do the same for CCN(CCO)c1nc(OC[C@@H]2CC3(CC3)CN2C)nc2c(F)c(-c3ccc(F)c4sc(N)c(C#N)c34)c(C(F)(F)F)cc12 [Compound 180] as well.
100 to 1000 nM

Likewise for CN1CCC[C@H]1COc1nc(N(C)[C@H]2C[C@@H](O)C2)c2cc(C(F)(F)F)c(-c3ccc(F)c4sc(N)c(C#N)c34)c(F)c2n1 [Compound 35] ?
100 to 1000 nM

Consider next the molecule CN(c1nc(OCC23CCCN2CCC3)nc2c(F)c(-c3ccc(F)c4sc(N)c(C#N)c34)c(C(F)(F)F)cc12)[C@H]1C[C@@H](O)C1 [Compound 25] in the same way.
< 100 nM
